Source of measurements: PubChem BioAssay AID2060503

- Test system: 817829-284-R-J1-PDC complex spheroids, viability
- EXPERIMENT_SUMMARY: Anticancer human tumor 817829-284-R-J1-PDC patient-derived colon adenocarcinoma cell line growth inhibition [GQUAD]
- CONDITION_SET: second compound 0.0316 µM; first compound 0.0316 µM; active compounds read low
Labelling: viability, T/C reported below 90% becomes True; at or above becomes False.

COMPOUND	CAT
C#Cc1c(F)ccc2cc(O)cc(-c3ncc4c(N5CC6CCC(C5)N6)nc(OCC56CCCN5CC(F)C6)nc4c3F)c12 (stereo not given) + Cc1cnc(CNC(=O)c2c(=O)c3ccc(N4CCCN(C)CC4)nc3n3c2sc2ccccc23)cn1	True
CC1COCCN1c1cc(C2(S(C)(=N)=O)CC2)nc(-c2ccnc3[nH]ccc23)n1 (stereo not given) + CN(C)c1ccc(Nc2c3ccc(NC(=O)CCN4CCCC4)cc3nc3cc(NC(=O)CCN4CCCC4)ccc23)cc1	False
O=C(c1cc(Cc2n[nH]c(=O)c3ccccc23)ccc1F)N1CCN(C(=O)C2CC2)CC1 + CN(C)c1ccc(Nc2c3ccc(NC(=O)CCN4CCCC4)cc3nc3cc(NC(=O)CCN4CCCC4)ccc23)cc1	False
COc1cccc2c1C(=O)c1c(O)c3c(c(O)c1C2=O)CC(O)(C(=O)CO)CC3OC1CC(N)C(O)C(C)O1 (stereo not given) + CN(C)c1ccc(Nc2c3ccc(NC(=O)CCN4CCCC4)cc3nc3cc(NC(=O)CCN4CCCC4)ccc23)cc1	True
CC(C)(O)C1CCC(Nc2ccc3ncc(-c4cccc(C(F)(F)F)c4)n3n2)CC1 (stereo not given) + Cc1[nH]c2ccc(F)cc2c1-c1nc2c3cccnc3c3ncccc3c2[nH]1	False

---

- System: 817829-284-R-J1-PDC complex spheroids, viability
- EXPERIMENT_SUMMARY: Anticancer human tumor 817829-284-R-J1-PDC cell line growth inhibition [GQUAD];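 also: spheroids exposed to agents for 7 days before readout; percent viability relative to DMSO vehicle control taken as 100%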
- CONDITION_SET: second compound 0.1 µM; first compound 10 µM; active compounds read low
Reported viability, T/C values for the following molecules.

MOLECULE	viability, T/C
Cc1cccc(N(C)C(=O)C2C(O)CCN2c2nc(C)cc(C(F)(F)F)c2C#N)c1 (stereo not given) + CN(C)c1ccc(Nc2c3ccc(NC(=O)CCN4CCCC4)cc3nc3cc(NC(=O)CCN4CCCC4)ccc23)cc1	79.9%
COc1cccc2c1C(=O)c1c(O)c3c(c(O)c1C2=O)CC(O)(C(=O)CO)CC3OC1CC(N)C(O)C(C)O1 (stereo not given) + CN(C)c1ccc(Nc2c3ccc(NC(=O)CCN4CCCC4)cc3nc3cc(NC(=O)CCN4CCCC4)ccc23)cc1	0.28%
O=c1[nH]cc(F)c(=O)[nH]1 + Cc1cnc(CNC(=O)c2c(=O)c3ccc(N4CCCN(C)CC4)nc3n3c2sc2ccccc23)cn1	25.7%
CC(C)n1c(=O)n(C)c2cnc3cc(F)c(-c4ccc(OCCCN5CCCCC5)nc4)cc3c21 + CN(C)c1ccc(Nc2c3ccc(NC(=O)CCN4CCCC4)cc3nc3cc(NC(=O)CCN4CCCC4)ccc23)cc1	108%
CC1COCCN1c1cc(-c2ccnn2C)c2ccnc(-c3ccn[nH]3)c2n1 (stereo not given) + CN(C)c1ccc(Nc2c3ccc(NC(=O)CCN4CCCC4)cc3nc3cc(NC(=O)CCN4CCCC4)ccc23)cc1	5.85%

---

- Test system: 817829-284-R-J1-PDC complex spheroids, viability
- EXPERIMENT_SUMMARY: Anticancer human tumor 817829-284-R-J1-PDC cell line growth inhibition [GQUAD];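 also: spheroids exposed to agents for 7 days before readout; percent viability relative to DMSO vehicle control taken as 100%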
- CONDITION_SET: second compound 0.1 µM; first compound 0.1 µM; active compounds read low
viability, T/C values, listed per item

MOLECULE	TEST_TARGET	viability, T/C (%)
O=C(c1cc(Cc2n[nH]c(=O)c3ccccc23)ccc1F)N1CCN(C(=O)C2CC2)CC1 + Cc1cnc(CNC(=O)c2c(=O)c3ccc(N4CCCN(C)CC4)nc3n3c2sc2ccccc23)cn1	817829-284-R-J1-PDC complex spheroids, viability	33.5
C=CCn1c(=O)c2cnc(Nc3ccc(N4CCN(C)CC4)cc3)nc2n1-c1cccc(C(C)(C)O)n1 + CN(C)c1ccc(Nc2c3ccc(NC(=O)CCN4CCCC4)cc3nc3cc(NC(=O)CCN4CCCC4)ccc23)cc1	817829-284-R-J1-PDC complex spheroids, viability	101
CC(=O)O[C@H]1C(=O)[C@@]2(C)[C@H]([C@H](OC(=O)c3ccccc3)[C@]3(O)C[C@H](OC(=O)[C@H](O)[C@@H](NC(=O)c4ccccc4)c4ccccc4)C(C)=C1C3(C)C)[C@]1(OC(C)=O)CO[C@@H]1C[C@@H]2O + Cc1cnc(CNC(=O)c2c(=O)c3ccc(N4CCCN(C)CC4)nc3n3c2sc2ccccc23)cn1	817829-284-R-J1-PDC complex spheroids, viability	15.9
CC1COCCN1c1cc(-c2ccnn2C)c2ccnc(-c3ccn[nH]3)c2n1 (configuration not stated) + CN(C)c1ccc(Nc2c3ccc(NC(=O)CCN4CCCC4)cc3nc3cc(NC(=O)CCN4CCCC4)ccc23)cc1	817829-284-R-J1-PDC complex spheroids, viability	19.4
C=CC(=O)N1CCN(c2nc(=O)n(-c3c(C)ccnc3C(C)C)c3nc(-c4c(O)cccc4F)c(F)cc23)C(C)C1 (configuration not stated) + CN(C)c1ccc(Nc2c3ccc(NC(=O)CCN4CCCC4)cc3nc3cc(NC(=O)CCN4CCCC4)ccc23)cc1	817829-284-R-J1-PDC complex spheroids, viability	103
CC1COCCN1c1cc(-c2ccnn2C)c2ccnc(-c3ccn[nH]3)c2n1 (configuration not stated) + Cc1cnc(CNC(=O)c2c(=O)c3ccc(N4CCCN(C)CC4)nc3n3c2sc2ccccc23)cn1	817829-284-R-J1-PDC complex spheroids, viability	11.1
CC(C)(O)C1CCC(Nc2ccc3ncc(-c4cccc(C(F)(F)F)c4)n3n2)CC1 (configuration not stated) + Cc1cnc(CNC(=O)c2c(=O)c3ccc(N4CCCN(C)CC4)nc3n3c2sc2ccccc23)cn1	817829-284-R-J1-PDC complex spheroids, viability	36.8
CCCS(=O)(=O)Nc1ccc(F)c(C(=O)c2c[nH]c3ncc(-c4ccc(Cl)cc4)cc23)c1F + CN(C)c1ccc(Nc2c3ccc(NC(=O)CCN4CCCC4)cc3nc3cc(NC(=O)CCN4CCCC4)ccc23)cc1	817829-284-R-J1-PDC complex spheroids, viability	116
CC(C)n1c(=O)n(C)c2cnc3cc(F)c(-c4ccc(OCCCN5CCCCC5)nc4)cc3c21 + Cc1[nH]c2ccc(F)cc2c1-c1nc2c3cccnc3c3ncccc3c2[nH]1	817829-284-R-J1-PDC complex spheroids, viability	106
Cc1cccc(N(C)C(=O)C2C(O)CCN2c2nc(C)cc(C(F)(F)F)c2C#N)c1 (configuration not stated) + Cc1[nH]c2ccc(F)cc2c1-c1nc2c3cccnc3c3ncccc3c2[nH]1	817829-284-R-J1-PDC complex spheroids, viability	97.7
O=c1[nH]cc(F)c(=O)[nH]1 + CN(C)c1ccc(Nc2c3ccc(NC(=O)CCN4CCCC4)cc3nc3cc(NC(=O)CCN4CCCC4)ccc23)cc1	817829-284-R-J1-PDC complex spheroids, viability	102
CC1COCCN1c1cc(C2(O)CC3CCC(C2)O3)c2cnn(-c3ccn[nH]3)c2n1 (configuration not stated) + Cc1[nH]c2ccc(F)cc2c1-c1nc2c3cccnc3c3ncccc3c2[nH]1	817829-284-R-J1-PDC complex spheroids, viability	12.5

---

- System: 817829-284-R-J1-PDC complex spheroids, viability
- EXPERIMENT_SUMMARY: Anticancer human tumor 817829-284-R-J1-PDC cell line growth inhibition [GQUAD];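 also: spheroids exposed to agents for 7 days before readout; percent viability relative to DMSO vehicle control taken as 100%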
- CONDITION_SET: second compound 1 µM; first compound 0.316 µM; active compounds read low

COMPOUND	viability, T/C, %
Cn1ncnc1[C@H]1c2n[nH]c(=O)c3cc(F)cc(c23)N[C@@H]1c1ccc(F)cc1 + Cc1cnc(CNC(=O)c2c(=O)c3ccc(N4CCCN(C)CC4)nc3n3c2sc2ccccc23)cn1	22
CC(C)n1c(=O)n(C)c2cnc3cc(F)c(-c4ccc(OCCCN5CCCCC5)nc4)cc3c21 + Cc1cnc(CNC(=O)c2c(=O)c3ccc(N4CCCN(C)CC4)nc3n3c2sc2ccccc23)cn1	21.9
CC[C@@]1(O)C(=O)OCc2c1cc1n(c2=O)Cc2cc3c(CN(C)C)c(O)ccc3nc2-1 + Cc1cnc(CNC(=O)c2c(=O)c3ccc(N4CCCN(C)CC4)nc3n3c2sc2ccccc23)cn1	22.6
CC1COCCN1c1cc(C2(S(C)(=N)=O)CC2)nc(-c2ccnc3[nH]ccc23)n1 (stereo not given) + Cc1[nH]c2ccc(F)cc2c1-c1nc2c3cccnc3c3ncccc3c2[nH]1	105
Cn1ncnc1[C@H]1c2n[nH]c(=O)c3cc(F)cc(c23)N[C@@H]1c1ccc(F)cc1 + CN(C)c1ccc(Nc2c3ccc(NC(=O)CCN4CCCC4)cc3nc3cc(NC(=O)CCN4CCCC4)ccc23)cc1	71.8
